assay: Pharmacokinetic experiments in CD-1 mice; format: in vivo; conditions: male, mouse, plasma, 5 mg/kg Oral Administration
Reported Metric: AUC(0-inf) (ng·h/mL)
Answers are plain numbers, in ng·h/mL.

{"columns": ["Molecule", "Assay Value"],
 "data": [
  ["CN(C/C=C/C(=O)Nc1cc2c(Nc3ccc(F)c(Cl)c3)ncnc2cc1OC1CCOC1)Cc1ccccc1 (centres unmarked)", 140]
]}

Exercise: May I ask what AUC(0-inf) has been recorded for CN(C)C/C=C/C(=O)Nc1cc2c(Nc3ccc(F)c(Cl)c3)ncnc2cc1OC(F)F ?
Key: 1600

----------
tested on: Calu-3; experiment: Inhibition of tumor cells, WST method; assay type: cell-based; conditions: Homo sapiens, Lung
Reported Metric: IC50 (µM)
One number for each entry, in µM.

Exercise: For Calu-3, provide IC50 of CN(C)C/C=C/C(=O)Nc1cc2c(Nc3ccc(F)c(Cl)c3)ncnc2cc1OC(F)F [Compound Ie] please.
Key: 0.022
